# measurement.notes: Ratio of drug level in brain to plasma in po dosed rat
# Type: ADME, organism-based
# study.conditions: read-out: BPR
experimental.endpoint: Kp

Task: Entry "O=C(CN1CCCN(Cc2nc3ccccc3[nH]2)CC1)Nc1ccc(C(F)(F)F)cc1" has what Kp?
Output: 0.105

###

# measurement.notes: Half life in po dosed rat
# Format: ADME, organism-based
# study.conditions: in vivo
experimental.endpoint: half-life (h)
Answer with a number only, understood to be in h.

Task: // lookup half-life for "O=C(CN1CCCN(Cc2nc3ccccc3[nH]2)CC1)Nc1ccc(C(F)(F)F)cc1"
Output: 4.34

###

# measurement.notes: Cmax in po dosed rat
# Format: ADME, organism-based
# Parameters: route oral
# study.conditions: in vivo
experimental.endpoint: Cmax (ng/mL)
Please give a number only; it is taken to be in ng/mL.

Task: Please report the recorded Cmax for "O=C(CN1CCCN(Cc2nc3ccccc3[nH]2)CC1)Nc1ccc(C(F)(F)F)cc1" .
Output: 2280

###

# measurement.notes: Ratio of drug level in brain to plasma in iv dosed rat
# Format: ADME, organism-based
# study.conditions: read-out: BPR
experimental.endpoint: Kp
Keep it simple and answer with nothing but the number.

Task: Which Kp is reported for this compound? "O=C(CN1CCCN(Cc2nc3ccccc3[nH]2)CC1)Nc1ccc(C(F)(F)F)cc1"
Output: 0.438

###

Listing: IC50 of selected compounds
# tested.on: Voltage-dependent T-type calcium channel subunit alpha-1G (Homo sapiens, UniProt O43497)
# Sequence (O43497 whole entry): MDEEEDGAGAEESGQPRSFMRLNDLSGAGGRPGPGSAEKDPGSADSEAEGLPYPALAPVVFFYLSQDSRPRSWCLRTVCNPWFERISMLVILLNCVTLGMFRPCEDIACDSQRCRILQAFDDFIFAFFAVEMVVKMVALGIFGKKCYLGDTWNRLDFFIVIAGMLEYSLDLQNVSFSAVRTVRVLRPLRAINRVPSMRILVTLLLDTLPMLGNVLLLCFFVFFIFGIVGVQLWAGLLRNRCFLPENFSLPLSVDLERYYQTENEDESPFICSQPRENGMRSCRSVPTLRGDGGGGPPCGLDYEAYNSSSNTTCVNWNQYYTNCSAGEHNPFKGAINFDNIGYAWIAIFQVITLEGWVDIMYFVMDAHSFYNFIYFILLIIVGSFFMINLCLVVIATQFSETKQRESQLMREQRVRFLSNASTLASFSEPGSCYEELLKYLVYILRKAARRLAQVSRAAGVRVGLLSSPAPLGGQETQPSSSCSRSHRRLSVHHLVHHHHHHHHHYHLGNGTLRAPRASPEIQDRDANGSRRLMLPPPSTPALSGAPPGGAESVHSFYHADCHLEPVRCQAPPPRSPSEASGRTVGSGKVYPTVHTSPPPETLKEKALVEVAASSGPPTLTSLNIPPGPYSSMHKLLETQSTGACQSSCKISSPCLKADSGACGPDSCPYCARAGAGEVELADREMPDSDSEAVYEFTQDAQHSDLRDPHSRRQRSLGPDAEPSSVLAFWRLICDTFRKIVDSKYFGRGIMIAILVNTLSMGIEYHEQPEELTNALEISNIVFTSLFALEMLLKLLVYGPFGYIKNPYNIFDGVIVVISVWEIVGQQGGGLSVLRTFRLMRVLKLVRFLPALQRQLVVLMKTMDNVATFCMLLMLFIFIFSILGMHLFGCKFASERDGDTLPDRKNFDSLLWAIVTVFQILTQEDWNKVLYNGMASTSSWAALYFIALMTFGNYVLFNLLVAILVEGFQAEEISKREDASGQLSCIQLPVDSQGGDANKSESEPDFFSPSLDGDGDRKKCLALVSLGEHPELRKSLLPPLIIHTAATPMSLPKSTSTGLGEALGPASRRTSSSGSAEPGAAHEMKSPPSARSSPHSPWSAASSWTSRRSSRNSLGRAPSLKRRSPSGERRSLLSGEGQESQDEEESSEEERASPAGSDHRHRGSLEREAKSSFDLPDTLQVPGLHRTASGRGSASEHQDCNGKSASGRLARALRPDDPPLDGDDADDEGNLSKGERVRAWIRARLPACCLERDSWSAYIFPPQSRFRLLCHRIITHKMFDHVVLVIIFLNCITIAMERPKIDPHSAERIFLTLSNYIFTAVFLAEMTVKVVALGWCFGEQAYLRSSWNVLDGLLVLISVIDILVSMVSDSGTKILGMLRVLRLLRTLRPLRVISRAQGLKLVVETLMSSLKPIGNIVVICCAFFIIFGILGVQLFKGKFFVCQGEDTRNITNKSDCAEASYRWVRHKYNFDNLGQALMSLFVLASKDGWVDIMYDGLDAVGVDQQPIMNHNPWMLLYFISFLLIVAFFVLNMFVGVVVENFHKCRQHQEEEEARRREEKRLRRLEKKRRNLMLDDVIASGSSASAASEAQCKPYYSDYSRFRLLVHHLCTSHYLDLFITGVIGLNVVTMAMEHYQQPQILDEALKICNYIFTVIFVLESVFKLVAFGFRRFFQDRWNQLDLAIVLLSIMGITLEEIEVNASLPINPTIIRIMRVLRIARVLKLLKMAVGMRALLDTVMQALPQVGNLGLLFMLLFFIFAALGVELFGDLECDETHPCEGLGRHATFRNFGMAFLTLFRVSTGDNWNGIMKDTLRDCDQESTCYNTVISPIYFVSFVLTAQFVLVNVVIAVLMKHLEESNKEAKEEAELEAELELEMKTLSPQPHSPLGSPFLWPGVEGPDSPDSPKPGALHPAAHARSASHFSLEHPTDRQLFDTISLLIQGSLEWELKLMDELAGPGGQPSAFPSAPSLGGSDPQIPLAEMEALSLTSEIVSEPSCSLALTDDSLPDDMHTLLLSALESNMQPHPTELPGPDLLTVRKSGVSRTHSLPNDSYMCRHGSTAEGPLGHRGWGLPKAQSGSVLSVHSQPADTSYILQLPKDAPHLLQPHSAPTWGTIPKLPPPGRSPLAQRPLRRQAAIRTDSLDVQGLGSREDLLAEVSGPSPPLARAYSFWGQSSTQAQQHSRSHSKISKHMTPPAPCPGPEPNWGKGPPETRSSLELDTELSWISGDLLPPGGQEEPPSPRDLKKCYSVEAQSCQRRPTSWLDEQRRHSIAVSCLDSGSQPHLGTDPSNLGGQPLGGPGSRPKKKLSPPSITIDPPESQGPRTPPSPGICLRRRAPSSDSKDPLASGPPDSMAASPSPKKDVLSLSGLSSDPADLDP
# measurement.notes: Inhibition of T-type calcium channel alpha1G expressed in human HEK293 cells assessed as inhibition of peak currents by whole-cell patch-clamp method
# Assay type: cell-based
Number only, in nM; omit the unit.

> print(dat)
                                   compound  observed
1  Cc1ccc(NC(=O)CN2CCCN(Cc3nc4ccccc4[nH]3)CC2)cc1C      2390
2  O=C(CN1CCCN(Cc2nc3ccccc3[nH]2)CC1)Nc1ccc(C(F)(F)F)cc1      1230
3  COc1ccccc1NC(=O)CN1CCCN(Cc2nc3ccccc3[nH]2)CC1     12600
4  CCc1cccc(CC)c1NC(=O)CN1CCCN(Cc2nc3ccccc3[nH]2)CC1      2080

Task: # lookup: IC50 of "O=C(CNc1ccccc1C(F)(F)F)N1CCCN(Cc2nc3ccccc3[nH]2)CC1"
Output: 3170

Task: Please give the measured IC50 for this compound: "O=C(CN1CCCN(Cc2nc3ccccc3[nH]2)CC1)Nc1ccccc1Cl"
Output: 1470

Task: Data request, read-out IC50, for "CCc1cccc(CC)c1NCC(=O)N1CCCN(Cc2nc3ccccc3[nH]2)CC1"
Output: 4000

###

# tested.on: Voltage-dependent T-type calcium channel subunit alpha-1G (Homo sapiens, UniProt O43497)
# measurement.notes: Inhibition of T-type calcium channel alpha1G expressed in human HEK293 cells assessed as inhibition of KCl-induced increase in calcium level at 10 uM after 60 mins by FDSS6000 assay
Would you mind labelling by inhibition? At or over 50% is y, under is n.

> print(dat)
                                   compound  assigned.class
1  COc1ccc(NCC(=O)N2CCCN(Cc3nc4ccccc4[nH]3)CC2)cc1               n
2  Cc1ccc(NC(=O)CN2CCCN(Cc3nc4ccccc4[nH]3)CC2)c(C)c1               n
3  O=C(CN1CCCN(Cc2nc3ccccc3[nH]2)CC1)Nc1ccc(C(F)(F)F)cc1               y
4  CCc1cccc(CC)c1NCC(=O)N1CCCN(Cc2nc3ccccc3[nH]2)CC1               y

Task: Hello, I need to know if "COc1cccc(NCC(=O)N2CCCN(Cc3nc4ccccc4[nH]3)CC2)c1" has measured inhibition not below 50%. Thanks!
Output: n

Task: Identify whether the reported inhibition of the following molecule is 50% or greater: "O=C(CN1CCCN(Cc2nc3ccccc3[nH]2)CC1)Nc1cccc(C(F)(F)F)c1"
Output: y

Task: Kindly determine if inhibition recorded for "Cc1ccccc1NCC(=O)N1CCCN(Cc2nc3ccccc3[nH]2)CC1" is above or exactly 50%.
Output: n

Task: Say whether "COc1ccccc1NC(=O)CN1CCCN(Cc2nc3ccccc3[nH]2)CC1" shows inhibition of 50% or more.
Output: y

Task: Does the molecule "O=C(CNc1ccc(C(F)(F)F)cc1)N1CCCN(Cc2nc3ccccc3[nH]2)CC1" have recorded inhibition that is 50% or more?
Output: n

Task: Is inhibition at least 50%? Consider "O=C(CN1CCCN(Cc2nc3ccccc3[nH]2)CC1)Nc1ccccc1Cl"
Output: y
